Test system: OVCAR-5 ovarian
ASSAY: NCI-60 one-dose screen, 48 h
CONDITION LABEL: 10 µM unless noted
This is part of a sample that, as a whole, favours compounds with a hit. Of some 83,000 tested, about 20% had one in any assay. Activity calls are given as the source filed them. Rule for the calls: active = growth percent below 10; inactive = the rest.
Classes to choose from: yes (1) = active, no (0) = inactive

Completed entries (count: 4):
{"columns": ["MOLECULE", "CLASSIFICATION"],
 "data": [
  ["COc1ccc(Nc2ncnc3c2sc2nc(C)cc(C)c23)cc1", "no (0)"],
  ["CC1CN(CCCOC(=O)Nc2ccc(Cl)cc2)CCN1C(C)(C)C (stereo not given)", "no (0)"],
  ["Clc1cc(Br)ccc1-c1ccc(CNCC2CCNCC2)o1", "no (0)"],
  ["N#Cc1c(N)n(C2OC(CO)C(O)C2O)c2ncnc(N)c12 (stereo not given)", "yes (1)"]
]}

What classification did `COc1ccc(/C(=C\c2cc(OC)c(OC)c(OC)c2)C(=O)N2CCCNCC2)cc1` end up with in this test?
no (0)

What classification did `O=C1Nc2ccccc2/C1=C/c1c[nH]c2ccccc12` end up with in this test?
no (0)

What classification did `Cc1c(O)c(=O)n(-c2ccccc2)n1C` end up with in this test?
no (0)

What classification did `COCCn1c(Nc2ccc(C(=O)NO)cc2)nc2ccccc21` end up with in this test?
no (0)

What classification did `C/C(=N\OC(=O)Nc1ccccc1)c1ccccc1` end up with in this test?
no (0)

What classification did CCCN(CCC)CC(O)COc1ccccc1C(=O)Nc1ccccc1 (stereo not given) end up with in this test?
no (0)

---

Test system: SF-539 CNS
ASSAY: NCI-60 one-dose screen, 48 h (100 = growth as untreated, 0 = no growth, -100 = all killed)
CONDITION LABEL: 10 µM unless noted
The panel holds about 83,000 compounds, 20% with a hit somewhere; the sample as a whole holds those more often.
# satisfied = growth below 50% (exclusive); not satisfied = growth at/above 50%

{"columns": ["MOLECULE", "TEST SYSTEM", "CLASSIFICATION"],
 "data": [
  ["COc1cc2nccc(Oc3ccc(NC(=O)C4(C(=O)Nc5ccc(F)cc5)CC4)cc3)c2cc1O", "SF-539 CNS", "satisfied"]
]}

Is growth of `CCCCN(CCCC)CCC(=O)c1ccc(OC)c2ccccc12` strictly below 50%?
not satisfied

Is growth of `Cc1cc(C)cc(NC(=O)Cn2nncc2CN2C(=O)CSC2=O)c1` strictly below 50%?
not satisfied

Is growth of `CCN(CC)CCNc1c(C)cc(CO)c(Cl)c1C` strictly below 50%?
not satisfied

Is growth of `CCOC(=O)C(=CNc1ccccc1Cl)C(=O)OCC` strictly below 50%?
not satisfied

Is growth of `Cc1ccc(-c2nc3ccccc3c(=O)n2/N=C/c2cccc3ccccc23)cc1` strictly below 50%?
not satisfied

Is growth of `Cc1ccc2oc(=O)cc(-c3nc4ccc([N+](=O)[O-])cc4[nH]3)c2c1` strictly below 50%?
not satisfied

Is growth of `O=C1/C(=C\c2cccn2C(=O)c2ccccc2)c2ccccc2N1c1c(Cl)cccc1Cl` strictly below 50%?
not satisfied

Is growth of COc1cc(C2C=C(C)N=C3SC=NN32)cc(OC)c1OC (configuration not stated) strictly below 50%?
not satisfied

---

System: HT29 colon
ASSAY: NCI-60 one-dose screen, 48 h (100 = growth as untreated, 0 = no growth, -100 = all killed)
CONDITION LABEL: 10 µM unless noted
Description: Growth inhibition of the HT29 human tumor cell line is measured as a screen for anti-cancer activity. Cells are grown in 96 well plates and exposed to the test compound for 48 hours. Compounds are tested at a single concentration, which is 10^-5 M for most compounds. The reported endpoint is percent growth (GI% or GIPRCNT), where numbers from 0 - 100% represent growth inhibition, and numbers from -100% - 0 represent cell death. For example, a value of 40 represents 60% growth inhibition. […]
Compounds without any hit were thinned out: in the full panel of roughly 83,000, 20% have a hit.
Measured growth, listed per entry.
Numeric answer only, unit % assumed.

Examples with their reported growth follow.
{"columns": ["COMPOUND", "RESULT UNITS", "growth"],
 "data": [
  ["C1=C\\CCCCN2CC[C@H]3[C@H](CCCC/C=C\\CCCN4C[C@@H](CCCCC/1)C[C@@H]3C4)C2", "%", 9.89],
  ["Cc1nn(-c2ccc(Cl)cc2)c(=O)n1CCN1CCOCC1", "%", 104]
]}

--- query ---
Reported growth for CCN(CC)CCCC(C)N/C(c1cccc(OC)c1)=c1\c(=O)[nH]n(-c2c3ccccc3nc3ccccc23)c(=O)\c1=C(/NC(C)CCCN(CC)CC)c1cccc(OC)c1 (stereo not drawn) was -68

---

Tested on: UACC-257 melanoma
ASSAY: NCI-60 one-dose screen, 48 h
CONDITION LABEL: 10 µM unless noted
This is part of a sample that, as a whole, favours compounds with a hit. Of some 83,000 tested, about 20% had one in any assay. Activity calls are given as the source filed them. How the source made its calls: active means growth percent below 10; inactive means the rest.
Classes to choose from: T for active, F for inactive

Completed entries (count: 10):
{"columns": ["MOLECULE", "CLASSIFICATION"],
 "data": [
  ["CCCCn1cnc(-c2cc(-c3ccccc3)cc(C(F)(F)F)c2)n1", "F"],
  ["COc1ccc(/C(=C\\c2cc(OC)c(OC)c(OC)c2)C(=O)Nc2nc3ccc(Cl)cc3s2)cc1", "F"],
  ["CCCCCNCCCCCNc1cc(OC)cc2cccnc12", "F"],
  ["COc1cc2nccc(Oc3ccc(NC(=O)C4(C(=O)Nc5ccc(F)cc5)CC4)cc3)c2cc1O", "F"],
  ["COc1cc(-c2csc(NC(=O)Nc3cccc(C(F)(F)F)c3)n2)cc(OC)c1OC", "F"],
  ["CCCCn1c(-c2ccc(F)cc2)nc2cc(OC)c(OC)cc2c1=O", "T"],
  ["COc1ccc2cc(-c3nc(C)c(C(C)=O)c(-c4ccc(C)cc4)n3)ccc2c1", "F"],
  ["Cc1c(-c2ccc(-c3ccccc3F)cc2)nc2ccc(F)cc2c1C(=O)O", "F"],
  ["CCCc1n(Cc2ccc3ccccc3c2)c2ccccc2[n+]1Cc1ccc2ccccc2c1", "T"],
  ["C#CC[C@@H]1C[C@]2(C)[C@H]3CC[C@@H]4[C@H]5C(C(=C)C)CC[C@]5(C(=O)NCCN(CCN)CCN)CC[C@@]4(C)[C@]3(C)CC[C@H]2C(C)(C)[C@H]1OC(C)=O (stereo not given in full)", "F"]
]}

What classification did `Nc1ccc(C(OC(=O)c2cc3ccccc3c(Cc3c(O)c(C(=O)OC(c4ccc(N)cc4)(c4ccc(N)cc4)c4ccc(N)cc4)cc4ccccc34)c2O)(c2ccc(N)cc2)c2ccc(N)cc2)cc1` end up with in this test?
T

What classification did `O=C(Cc1ccc(Nc2ccnc(C(F)(F)F)c2)cc1)N/N=C/c1ccccc1O` end up with in this test?
F

What classification did `COc1cc2nccc(Oc3ccc(NC(=O)C4(C(=O)Nc5c(F)cc(F)cc5F)CC4)cc3)c2cc1Oc1ccc(N)cn1` end up with in this test?
F

What classification did Nc1nc(N)c2c(n1)NC(c1sc(Cl)nc1Cl)CC(c1ccccc1)=N2 (stereo not given) end up with in this test?
F

---

Measured growth, listed per entry.
Test system: MCF7 breast
ASSAY: NCI-60 one-dose screen, 48 h (100 = growth as untreated, 0 = no growth, -100 = all killed)
CONDITION LABEL: 10 µM unless noted
The panel holds about 83,000 compounds, 20% with a hit somewhere; the sample as a whole holds those more often.
Numeric answer only, unit % assumed.

Examples with their reported growth follow.
{"columns": ["COMPOUND", "TEST SYSTEM", "growth [%]"],
 "data": [
  ["[Ag].[Ag].[NH-]S(=O)(=O)c1ccc(N=Nc2cc(N=Nc3ccc(S([NH-])(=O)=O)cc3)c3c(NC(=O)C(Cl)Cl)cccc3c2OC(=O)C(Cl)Cl)cc1.[c-]1nccs1.[c-]1nccs1", "MCF7 breast", 50.8],
  ["CC1(C)CC[C@]2(C(=O)N3CCNCC3)CC[C@]3(C)C(=CC[C@@H]4[C@@]5(C)CCC(=O)C(C)(C)[C@@H]5CC[C@]43C)[C@@H]2C1", "MCF7 breast", 98.6],
  ["CCN(CC)CCCC(C)Nc1cnc(C(=O)Nc2cc(C)cc3cccnc23)cn1 (centres undefined)", "MCF7 breast", 57.3],
  ["Oc1c(-c2cc(C(F)(F)F)[nH]n2)cc(Cl)c(OCc2ccc(Cl)cc2)c1-c1ccc(Cl)c(C(F)(F)F)c1", "MCF7 breast", 2.3],
  ["O=c1[nH]cnc2nc[nH]c12", "MCF7 breast", 95.4],
  ["COCCn1c(Nc2ccc(C(=O)NO)cc2)nc2ccccc21", "MCF7 breast", 61.4],
  ["COc1cc2nccc(Oc3ccc(NC(=O)C4(C(=O)Nc5ccc(F)cc5)CC4)cc3)c2cc1OC(=O)c1ccc(N)cc1", "MCF7 breast", 23.8],
  ["Cc1c(C)c(C)c([N+](=O)[O-])c([N+](=O)[O-])c1C", "MCF7 breast", 97]
]}

Reported growth for `N#Cc1ccc(NC(=O)Nc2nc3ccc(OC(F)(F)F)cc3s2)cc1` was 6.26

Reported growth for CCCC(CCC)NCC(O)c1cc(-c2ccc(C(F)(F)F)cc2)nc(C(F)(F)F)c1 (centres undefined) was -85.1

Reported growth for COc1ccc(C2C=C(c3ccc(Cl)cc3)N=C3SC=CN32)cc1 (centres undefined) was 96.1

Reported growth for `c1ccc2c(c1)cnc1ccccc12` was 94.3

Reported growth for `CN1CCN(Cc2ccc(NC(=O)c3cccc(C#Cc4cnc(N)c5ncccc45)c3F)cc2C(F)(F)F)CC1` was -65.1

Reported growth for `CCCCn1c(-c2ccc(F)cc2)nc2cc(OC)c(OC)cc2c1=O` was 88.2

Reference source for all entries: PubChem BioAssay (NCI)
